method.description: Pharmacokinetics and bioavailability of [14C]-MDL 73,745 in Beagle dogs
Format: in vivo, Beagle dog
test.conditions: dog, in vivo, iv, 2 mg/kg, iv 2 mg/kg, dog No. 19
assay.readout: half-life
Express your answer as a number followed by its unit.

Recorded half-life for C[Si](C)(C)c1cccc(C(=O)C(F)(F)F)c1 [MDL 73,745] , please? 26.2 h

---

method.description: Pharmacokinetics and bioavailability of [14C]-MDL 73,745 in Beagle dogs
Type: in vivo, Beagle dog
test.conditions: dog, in vivo, sc, 10 mg/kg, subcutaneous 10 mg/kg, mean ± SD of 3 dogs
assay.readout: Cmax
Express your answer as a number followed by its unit.

Recorded Cmax for C[Si](C)(C)c1cccc(C(=O)C(F)(F)F)c1 [MDL 73,745] , please? 52 ng/mL
